- STUDY TARGET: human TLR9 (Homo sapiens, UniProt Q9NR96)
- Construct: host or cells: HEK-Blue cells (HEK293-derived reporter line)
- Sequence (Q9NR96 26-1032): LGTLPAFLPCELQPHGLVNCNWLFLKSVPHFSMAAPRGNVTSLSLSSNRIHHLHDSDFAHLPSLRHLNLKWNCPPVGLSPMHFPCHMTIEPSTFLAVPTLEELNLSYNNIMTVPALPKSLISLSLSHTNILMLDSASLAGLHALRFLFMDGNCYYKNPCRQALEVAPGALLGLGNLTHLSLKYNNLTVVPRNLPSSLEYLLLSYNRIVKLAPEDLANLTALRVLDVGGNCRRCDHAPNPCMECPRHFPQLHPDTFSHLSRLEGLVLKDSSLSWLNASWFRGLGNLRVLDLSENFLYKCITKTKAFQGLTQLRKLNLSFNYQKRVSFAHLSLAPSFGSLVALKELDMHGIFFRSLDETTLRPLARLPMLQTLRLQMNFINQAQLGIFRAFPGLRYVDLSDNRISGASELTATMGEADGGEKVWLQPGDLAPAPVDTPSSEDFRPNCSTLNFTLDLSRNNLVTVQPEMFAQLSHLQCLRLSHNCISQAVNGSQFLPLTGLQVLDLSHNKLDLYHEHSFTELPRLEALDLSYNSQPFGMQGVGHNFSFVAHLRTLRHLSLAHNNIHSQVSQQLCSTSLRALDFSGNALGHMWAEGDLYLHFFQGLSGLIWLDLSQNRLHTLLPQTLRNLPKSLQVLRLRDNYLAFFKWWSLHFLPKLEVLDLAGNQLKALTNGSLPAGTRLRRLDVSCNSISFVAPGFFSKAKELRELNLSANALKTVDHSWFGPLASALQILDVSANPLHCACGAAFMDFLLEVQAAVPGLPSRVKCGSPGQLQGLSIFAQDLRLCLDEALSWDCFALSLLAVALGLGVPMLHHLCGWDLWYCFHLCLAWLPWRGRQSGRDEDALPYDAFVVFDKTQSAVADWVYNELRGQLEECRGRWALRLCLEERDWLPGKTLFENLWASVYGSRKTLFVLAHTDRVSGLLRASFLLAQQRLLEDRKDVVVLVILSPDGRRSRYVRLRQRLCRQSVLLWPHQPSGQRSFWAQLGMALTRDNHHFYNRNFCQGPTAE
- PROTOCOL: TLR9 inhibition reporter assay (HEK-Blue cells, secreted embryonic alkaline phosphatase reporter)
- Type: cell-based
- RUN CONDITIONS: HEK-Blue human TLR9 reporter cells
ATTRIBUTE MEASURED: IC50 (nM)
Please give a number only; it is taken to be in nM.

Cn1c(-c2ccc(S(C)(=O)=O)cc2)nc2c(F)cc(C3CCN(C4CCCN(CC5CC5)CC4)CC3)cc21 (single isomer, unassigned) [Example 298]    58
CC(C)CN1C2CCC1CC(N1CCC(c3cc(F)c4nc(-c5ccc(S(C)(=O)=O)cc5)n(C5CC5)c4c3)CC1)C2 (single isomer, unassigned) [Example 323]    60

Turning now to a further record.
Identify the reported IC50 for the following entry. COCCN1CCCC(N2CCC(c3cc(C)c4nc(-c5ccc(S(C)(=O)=O)cc5)n(C)c4c3)CC2)CC1 (single isomer, unassigned) [Example 309]
34

---

- STUDY TARGET: human TLR9 (Homo sapiens, UniProt Q9NR96)
- Construct: host or cells: HEK-Blue cells (HEK293-derived reporter line)
- PROTOCOL: TLR9 inhibition reporter assay (HEK-Blue cells, secreted embryonic alkaline phosphatase reporter)
- Type: cell-based
- RUN CONDITIONS: HEK-Blue cells overexpressing human TLR9, stimulated with ODN2006 5 nM, 22 hour incubation, reporter readout
Sorting guide: entries reporting IC50 beneath 100 nM go in the Condition met pile, the rest go in the Condition not met pile.

These recorded examples may help you get a feel for the data.
Cc1cc(C2CCN(C3CCN(CC(C)C)CC3)CC2)cc2[nH]c(-c3ccc(OC(F)F)c(F)c3)nc12 [Example 69, tris(2,2,2-trifluoroacetate)]    Condition not met
Cc1cc(C2CCN(C3CCN(C(C)C)CC3)CC2)cc2c1nc(-c1ccc(S(C)(=O)=O)cc1)n2C [Example 22]    Condition met
COc1ccc(-c2nc3ccc(C4CCN(C5CCN(C(C)C)CC5)CC4)cc3[nH]2)cc1OC [Example 2]    Condition not met

Please turn your attention to the following entry.
Field: below-cutoff. Rule: recorded IC50 strictly less than 100 nM. Subject: CN(C)C1CCN(Cc2ccc(-c3ccc4nc(-c5cc(F)cc(F)c5)n(C)c4c3)cc2)CC1 [Example 381]
Condition not met

---

In this section we review reported pIC50 values for a set of compounds.
- STUDY TARGET: human TLR9 (Homo sapiens)
- Construct: host or cells: HEK-Blue cells (HEK293-derived reporter line)
- PROTOCOL: TLR9 inhibition reporter assay (HEK-Blue cells, secreted embryonic alkaline phosphatase reporter)
- Format: cell-based
- RUN CONDITIONS: HEK-Blue cells overexpressing human TLR9, stimulated with ODN2006 5 nM; read-out: TLR 9 IC50
On this scale, pIC50 is minus log10 of a concentration expressed in M (mol/L).

Check out these entries, answers already filled in.
Cn1c(-c2ccc(S(C)(=O)=O)cc2)nc2cc(F)c(C3CCN(C4CC5CCC(C4)N5CC4CC4)CC3)cc21 (stereo not drawn) [Example 231]    7.24
Cc1cc(C2CCN(C3CC4(C3)CN(C(C)C)C4)CC2)cc2c1nc(-c1ccc(S(C)(=O)=O)cc1)n2C    6.68
COc1ccc(-c2nc3c(C)cc(C4CCN(C5CCN(CC(C)C)CC5)CC4)cc3n2C)cc1F    6.88

Answer with reported pIC50 of CS(=O)(=O)c1ccc(-c2nc3c(F)cc(C4CCN(C5CC6CCC(C5)N6C5CCC5)CC4)cc3n2C2CC2)cc1 (single isomer, unassigned) [Example 327]
6.95

Answer with the recorded pIC50 of CN(C)C1CCN(Cc2ccc(-c3ccc4nc(-c5cccc(S(C)(=O)=O)c5)n(C)c4c3)cc2)CC1 only.
4.39

Please list pIC50 recorded for the compound CS(=O)(=O)c1ccc(-c2nc3c(F)cc(C4CCN(C5CC6CCC(C5)N6C5CCC5)CC4)cc3n2C2CC2)cc1 (single isomer, unassigned) [Example 326]
7.64
